tested on: A549; experiment: Antiproliferative activity against human A549 cells incubated for 48 to 72 hrs by MTT assay; assay type: functional, cell-based
measured.metric: IC50 (µM)
API: value field is a number in µM; no unit string.

COc1c(O)cc2c(c1O)[C@@H]1O[C@H](COC(=O)/C=C/c3ccc(Cl)c(Cl)c3)[C@@H](O)[C@H](O)[C@H]1OC2=O ... 63.2
COc1c(O)cc2c(c1O)[C@@H]1O[C@H](COC(=O)/C=C/c3ccccc3)[C@@H](O)[C@H](O)[C@H]1OC2=O ... 56.9
COc1c(O)cc2c(c1O)[C@@H]1O[C@H](COC(=O)/C=C/c3cc(F)cc(F)c3)[C@@H](O)[C@H](O)[C@H]1OC2=O ... 28.4
COc1c(O)cc2c(c1O)[C@@H]1O[C@H](CO)[C@@H](O)[C@H](O)[C@H]1OC2=O ... 77.3
COc1cc(/C=C/C(=O)OC[C@H]2O[C@H]3c4c(cc(O)c(OC)c4O)C(=O)O[C@@H]3[C@@H](O)[C@@H]2O)cc(OC)c1 ... 12.3

So what's the measured IC50 for this one? COc1c(O)cc2c(c1O)[C@@H]1O[C@H](COC(=O)/C=C/c3ccc(C#N)cc3)[C@@H](O)[C@H](O)[C@H]1OC2=O 10.7

So what's the measured IC50 for this one? COc1ccc(/C=C/C(=O)OC[C@H]2O[C@H]3c4c(cc(O)c(OC)c4O)C(=O)O[C@@H]3[C@@H](O)[C@@H]2O)cc1 26.4

So what's the measured IC50 for this one? COc1cc(/C=C/C(=O)OC[C@H]2O[C@H]3c4c(cc(O)c(OC)c4O)C(=O)O[C@@H]3[C@@H](O)[C@@H]2O)cc(OC)c1OC 5.46

So what's the measured IC50 for this one? COc1c(O)cc2c(c1O)[C@@H]1O[C@H](COC(=O)/C=C/c3ccc(C)cc3)[C@@H](O)[C@H](O)[C@H]1OC2=O 10.3

----------
Examples of compounds with documented IC50 follow.
system: PC-3; assay: Antiproliferative activity against human PC3 cells incubated for 48 to 72 hrs by MTT assay; format: functional, cell-based

As a guide, the following entries are already answered.
COc1c(O)cc2c(c1O)[C@@H]1O[C@H](COC(=O)/C=C/c3ccc(C)c(C)c3)[C@@H](O)[C@H](O)[C@H]1OC2=O ... > 100 µM
COc1cc(/C=C/C(=O)OC[C@H]2O[C@H]3c4c(cc(O)c(OC)c4O)C(=O)O[C@@H]3[C@@H](O)[C@@H]2O)cc(OC)c1OC ... 12.1 µM

Kindly consider the entry below.
So what's the measured IC50 for this one? COc1c(O)cc2c(c1O)[C@@H]1O[C@H](COC(=O)/C=C/c3cc([N+](=O)[O-])cc([N+](=O)[O-])c3)[C@@H](O)[C@H](O)[C@H]1OC2=O > 100 µM

----------
tested on: PC-3; experiment: Antiproliferative activity against human PC3 cells incubated for 48 to 72 hrs by MTT assay; format: functional, cell-based
Examples of compounds with documented IC50 follow.
API: value field is a number in µM; no unit string.

So what's the measured IC50 for this one? COc1c(O)cc2c(c1O)[C@@H]1O[C@H](COC(=O)/C=C/c3ccccc3)[C@@H](O)[C@H](O)[C@H]1OC2=O 13.5

So what's the measured IC50 for this one? COc1c(O)cc2c(c1O)[C@@H]1O[C@H](COC(=O)/C=C/c3ccc(C)cc3)[C@@H](O)[C@H](O)[C@H]1OC2=O 30.2

So what's the measured IC50 for this one? COc1c(O)cc2c(c1O)[C@@H]1O[C@H](COC(=O)/C=C/c3ccc(C#N)cc3)[C@@H](O)[C@H](O)[C@H]1OC2=O 27

So what's the measured IC50 for this one? COc1c(O)cc2c(c1O)[C@@H]1O[C@H](COC(=O)/C=C/c3ccc(Cl)cc3)[C@@H](O)[C@H](O)[C@H]1OC2=O 86.5

So what's the measured IC50 for this one? O=c1[nH]cc(F)c(=O)[nH]1 38.6
